src = BindingDB's records for doi:10.1021/acs.jmedchem.6b00594

- Assay Explanation: Inhibition of human FR-beta receptor expressed in Chinese hamster D4 cells assessed as antiproliferative activity measured as reduction in cell viability after 96 hrs by Cell-Titer Blue fluorescence analysis
In plain terms, low IC50, meaning strictly below 0.6 nM, gives YES, and everything else gives NO.

Example entries begin here.
>>> category("Nc1nc2[nH]c(CCSc3ccc(C(=O)N[C@@H](CCC(=O)O)C(=O)O)cc3)cc2c(=O)[nH]1")
"YES"
>>> category("Nc1nc2[nH]c(CCN(C(=O)C(F)(F)F)c3ccc(C(=O)N[C@@H](CCC(=O)O)C(=O)O)cc3)cc2c(=O)[nH]1")
"YES"
>>> category("Nc1nc2[nH]c(CCN(C=O)c3ccc(C(=O)N[C@@H](CCC(=O)O)C(=O)O)cc3)cc2c(=O)[nH]1")
"YES"

## Input Hello, is IC50 of the following compound strictly smaller than 0.6 nM? Nc1nc2[nH]c(CCOc3ccc(C(=O)N[C@@H](CCC(=O)O)C(=O)O)cc3)cc2c(=O)[nH]1
## Output NO

## Input Next record, please: Nc1nc2[nH]c(CCNc3ccc(C(=O)N[C@@H](CCC(=O)O)C(=O)O)cc3)cc2c(=O)[nH]1
## Output NO

## Input Also check CC(=O)N(CCc1cc2c(=O)[nH]c(N)nc2[nH]1)c1ccc(C(=O)N[C@@H](CCC(=O)O)C(=O)O)cc1
## Output NO
